Origin of measurements: ChEMBL document CHEMBL1909046

Assay: DRUGMATRIX: Calcium Channel Type L, Dihydropyridine radioligand binding (ligand: [3H] Nitrendipine)
Assay type: cell membranes, Rattus norvegicus, Wistar, Cerebral cortex, Membrane
Settings: Not Active = under 50% inhibition at 10 µM; read-out: Ki
compounds and their reported Ki

- Chem Smiles: "CC[C@H](C)[C@@H](CO[C@@H](Cc1ccccc1)C(=O)N[C@@H](CCS(C)(=O)=O)C(=O)OC(C)C)NC[C@@H](N)CS"
  Ki: "2.89 µM"

The record that follows has no Ki shown yet.
Specify measured Ki for CCOC(=O)C1=C(C)NC(C)=C(C(=O)OCC)C1c1ccccc1/C=C/C(=O)OC(C)(C)C .
0.000257 µM

* * *

Assay: DRUGMATRIX: Phosphodiesterase PDE3 enzyme inhibition (substrate: [3H]cAMP + cAMP)
Assay type: tissue-based, Homo sapiens
Settings: platelet; Not Active = under 50% inhibition at 10 µM
Experimental Readout: IC50

- Compound: "O=C(NCCN1CCOCC1)c1ccc(Cl)cc1 [MOCLOBEMIDE]"
  IC50: "Not Active"
- Compound: "CCC1(c2ccccc2)C(=O)NC(=O)NC1=O [PHENOBARBITAL]"
  IC50: "Not Active"
- Compound: "O=C(c1ccccc1)c1ccc2n1CCC2C(=O)O (stereo not given) [KETOROLAC]"
  IC50: "Not Active"
- Compound: "O=C(O)c1cc(/N=N/c2ccc(S(=O)(=O)Nc3ccccn3)cc2)ccc1O [SULFASALAZINE]"
  IC50: "Not Active"

Specify measured IC50 for CC(CN1c2ccccc2Sc2ccccc21)N(C)C (stereo not given) [PROMETHAZINE] .
Not Active

* * *

Molecular target: Tyrosine-protein kinase Lck (Homo sapiens, UniProt P06239)
Sequence (P06239 whole entry): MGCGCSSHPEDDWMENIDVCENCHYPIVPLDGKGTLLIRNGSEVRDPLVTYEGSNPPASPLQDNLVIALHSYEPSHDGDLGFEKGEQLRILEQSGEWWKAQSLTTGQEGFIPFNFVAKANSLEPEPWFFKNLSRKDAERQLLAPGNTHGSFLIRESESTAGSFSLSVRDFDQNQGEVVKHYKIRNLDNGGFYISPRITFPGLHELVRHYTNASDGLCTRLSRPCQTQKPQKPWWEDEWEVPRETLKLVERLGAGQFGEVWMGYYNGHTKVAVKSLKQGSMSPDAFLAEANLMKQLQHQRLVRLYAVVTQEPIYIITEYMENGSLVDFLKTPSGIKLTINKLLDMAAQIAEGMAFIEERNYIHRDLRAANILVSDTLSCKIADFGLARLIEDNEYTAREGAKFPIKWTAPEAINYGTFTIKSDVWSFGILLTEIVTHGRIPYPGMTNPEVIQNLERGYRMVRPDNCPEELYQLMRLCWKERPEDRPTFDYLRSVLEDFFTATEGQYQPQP
Assay: DRUGMATRIX: Protein Tyrosine Kinase, LCK enzyme inhibition (substrate: Poly(Glu:Tyr))
Assay type: cell-based, Insect cells
Conditions: insect cells; Not Active = under 50% inhibition at 10 µM

- Compound: "O=C1CN(/N=C/c2ccc([N+](=O)[O-])o2)C(=O)N1 [NITROFURANTOIN]"
  Assay System: "Tyrosine-protein kinase Lck (Homo sapiens, UniProt P06239)"
  IC50: "Not Active"
- Compound: "OC[C@H]1O[C@@H]2O[C@H]3[C@H](O)[C@@H](O)[C@@H](O[C@H]4[C@H](O)[C@@H](O)[C@@H](O[C@H]5[C@H](O)[C@@H](O)[C@@H](O[C@H]6[C@H](O)[C@@H](O)[C@@H](O[C@H]7[C@H](O)[C@@H](O)[C@@H](O[C@H]8[C@H](O)[C@@H](O)[C@@H](O[C@H]1[C@H](O)[C@H]2O)O[C@@H]8CO)O[C@@H]7CO)O[C@@H]6CO)O[C@@H]5CO)O[C@@H]4CO)O[C@@H]3CO [BETADEX]"
  Assay System: "Tyrosine-protein kinase Lck (Homo sapiens, UniProt P06239)"
  IC50: "Not Active"

* * *

Test: DRUGMATRIX: Nicotinic Acetylcholine radioligand binding (ligand: [125I] Epibatidine)
Type: cell membranes, Membrane
Conditions: imr-32; Not Active = under 50% inhibition at 10 µM
Experimental Readout: Ki

Use these answered entries as a reference point.
- Molecule: "CCN1C[C@]2(COC)[C@H](O)C[C@H](OC)[C@@]34[C@@H]5C[C@@]6(O)[C@H](OC(=O)c7ccccc7)[C@@H]5[C@@](OC(C)=O)([C@@H]([C@H](OC)[C@H]23)[C@@H]14)[C@@H](O)[C@@H]6OC [ACONITINE]"
  Ki: "Not Active"
- Molecule: "O=C1c2ccccc2C(=O)C1c1ccccc1 [PHENINDIONE]"
  Ki: "Not Active"
- Molecule: "CC#C[C@]1(O)CC[C@H]2[C@@H]3CCC4=CC(=O)CCC4=C3[C@@H](c3ccc(N(C)C)cc3)C[C@@]21C [MIFEPRISTONE]"
  Ki: "Not Active"
- Molecule: "O=C(c1ccccc1)c1ccc2n1CCC2C(=O)O (centres undefined) [KETOROLAC]"
  Ki: "Not Active"
- Molecule: "C=CCc1ccc2c(c1)OCO2 [SAFROLE]"
  Ki: "Not Active"

The record that follows has no Ki shown yet.
Specify measured Ki for Nc1ccc(Cc2ccc(N)cc2)cc1 .
Not Active

* * *

Molecular target: Mitogen-activated protein kinase 14 (Homo sapiens); further: in other assays of this panel Not Active means under 50% inhibition at 10 µM;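 further: inhibition of p38alpha enzyme activity in a biochemical kinase assay, with myelin basic protein serving as substrate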
Sequence (Q16539 whole entry): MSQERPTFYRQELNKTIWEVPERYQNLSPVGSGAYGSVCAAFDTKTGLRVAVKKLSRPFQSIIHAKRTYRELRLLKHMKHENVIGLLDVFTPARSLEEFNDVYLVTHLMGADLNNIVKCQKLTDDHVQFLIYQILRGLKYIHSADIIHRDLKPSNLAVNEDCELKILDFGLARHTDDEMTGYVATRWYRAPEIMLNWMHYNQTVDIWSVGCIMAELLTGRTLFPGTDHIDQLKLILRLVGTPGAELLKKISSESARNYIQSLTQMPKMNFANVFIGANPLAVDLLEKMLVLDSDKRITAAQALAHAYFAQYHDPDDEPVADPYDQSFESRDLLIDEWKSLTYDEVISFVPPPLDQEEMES
Set-up: species or system Escherichia coli
Experimental Readout: IC50

Use these answered entries as a reference point.
- Compound: "CC(C)Cc1ccc([C@H](C)C(=O)O)cc1"
  Assay System: "Mitogen-activated protein kinase 14 (Homo sapiens)"
  Experimental Readout: "IC50"
  Endpoint Result: "Not Active"
- Compound: "CCN1C[C@]2(COC)[C@H](O)C[C@H](OC)[C@@]34[C@@H]5C[C@@]6(O)[C@H](OC(=O)c7ccccc7)[C@@H]5[C@@](OC(C)=O)([C@@H]([C@H](OC)[C@H]23)[C@@H]14)[C@@H](O)[C@@H]6OC"
  Assay System: "Mitogen-activated protein kinase 14 (Homo sapiens)"
  Experimental Readout: "IC50"
  Endpoint Result: "Not Active"
- Compound: "O=C1c2ccccc2C(=O)C1c1ccccc1"
  Assay System: "Mitogen-activated protein kinase 14 (Homo sapiens)"
  Experimental Readout: "IC50"
  Endpoint Result: "Not Active"
- Compound: "CO[C@H]1O[C@@H]2O[C@@]3(C)CC[C@H]4[C@H](C)CC[C@@H]([C@H]1C)[C@@]24OO3"
  Assay System: "Mitogen-activated protein kinase 14 (Homo sapiens)"
  Experimental Readout: "IC50"
  Endpoint Result: "Not Active"

Provide measured IC50 on Mitogen-activated protein kinase 14 (Homo sapiens) for NS(=O)(=O)c1cc(C(=O)O)c(NCc2ccco2)cc1Cl [FUROSEMIDE] please.
Not Active

Provide measured IC50 on Mitogen-activated protein kinase 14 (Homo sapiens) for CC(N)Cc1c[nH]c2ccc(OCc3cccs3)cc12 (stereo unspecified) please.
Not Active

Provide measured IC50 on Mitogen-activated protein kinase 14 (Homo sapiens) for C=C(Cl)Cl please.
Not Active

Provide measured IC50 on Mitogen-activated protein kinase 14 (Homo sapiens) for CCOC(=O)C1=C(C)NC(C)=C(C(=O)OCC)C1c1ccccc1/C=C/C(=O)OC(C)(C)C please.
Not Active

Provide measured IC50 on Mitogen-activated protein kinase 14 (Homo sapiens) for C#C[C@]1(O)CC[C@H]2[C@@H]3[C@H](C)CC4=C(CCC(=O)C4)[C@H]3CC[C@@]21C please.
Not Active

* * *

Target: Interstitial collagenase (Homo sapiens);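 further: MMP-1 enzyme inhibition assay using a peptide substrate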; further: in other assays of this panel Not Active means under 50% inhibition at 10 µM
Sequence (P03956 whole entry): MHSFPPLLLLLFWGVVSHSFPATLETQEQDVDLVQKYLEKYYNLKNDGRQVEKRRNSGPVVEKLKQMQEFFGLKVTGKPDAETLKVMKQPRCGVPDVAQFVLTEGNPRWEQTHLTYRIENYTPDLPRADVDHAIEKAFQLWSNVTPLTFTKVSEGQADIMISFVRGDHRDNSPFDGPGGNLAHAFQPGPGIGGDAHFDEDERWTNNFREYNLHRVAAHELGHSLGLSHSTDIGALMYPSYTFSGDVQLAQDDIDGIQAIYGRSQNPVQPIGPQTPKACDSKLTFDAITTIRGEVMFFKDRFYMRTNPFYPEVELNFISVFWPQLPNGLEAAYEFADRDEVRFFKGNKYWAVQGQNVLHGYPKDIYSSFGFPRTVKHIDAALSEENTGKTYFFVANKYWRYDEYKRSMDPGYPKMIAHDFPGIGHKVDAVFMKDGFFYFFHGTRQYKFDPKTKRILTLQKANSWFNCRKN
Assay: biochemical
Format: tissue-based, Rheumatoid synovial fibroblasts
Experimental Readout: IC50

- Compound: "CC(C)Cc1ccc([C@H](C)C(=O)O)cc1"
  Assay System: "Interstitial collagenase (Homo sapiens)"
  IC50: "Not Active"
- Compound: "O=C1c2ccccc2C(=O)C1c1ccccc1"
  Assay System: "Interstitial collagenase (Homo sapiens)"
  IC50: "Not Active"
- Compound: "OC[C@H]1O[C@@H]2O[C@H]3[C@H](O)[C@@H](O)[C@@H](O[C@H]4[C@H](O)[C@@H](O)[C@@H](O[C@H]5[C@H](O)[C@@H](O)[C@@H](O[C@H]6[C@H](O)[C@@H](O)[C@@H](O[C@H]7[C@H](O)[C@@H](O)[C@@H](O[C@H]1[C@H](O)[C@H]2O)O[C@@H]7CO)O[C@@H]6CO)O[C@@H]5CO)O[C@@H]4CO)O[C@@H]3CO"
  Assay System: "Interstitial collagenase (Homo sapiens)"
  IC50: "Not Active"
- Compound: "COC(=O)Nc1nc2ccc(Sc3ccccc3)cc2[nH]1"
  Assay System: "Interstitial collagenase (Homo sapiens)"
  IC50: "Not Active"
- Compound: "NS(=O)(=O)c1cc(C(=O)O)c(NCc2ccco2)cc1Cl [FUROSEMIDE]"
  Assay System: "Interstitial collagenase (Homo sapiens)"
  IC50: "Not Active"

Specify measured IC50 for Cc1cc2c(s1)Nc1ccccc1N=C2N1CCN(C)CC1 .
Not Active

Specify measured IC50 for CC(C)NCC(O)COc1ccc(CC(N)=O)cc1 (stereo not drawn) .
Not Active

Specify measured IC50 for CC1=C(/C=C/C(C)=C/C=C/C(C)=C/C(=O)O)C(C)(C)CCC1 .
Not Active

Specify measured IC50 for OC[C@H]1O[C@@H]2O[C@H]3[C@H](O)[C@@H](O)[C@@H](O[C@H]4[C@H](O)[C@@H](O)[C@@H](O[C@H]5[C@H](O)[C@@H](O)[C@@H](O[C@H]6[C@H](O)[C@@H](O)[C@@H](O[C@H]7[C@H](O)[C@@H](O)[C@@H](O[C@H]8[C@H](O)[C@@H](O)[C@@H](O[C@H]1[C@H](O)[C@H]2O)O[C@@H]8CO)O[C@@H]7CO)O[C@@H]6CO)O[C@@H]5CO)O[C@@H]4CO)O[C@@H]3CO .
Not Active

Specify measured IC50 for COc1cc(/C=C/C(=O)O)ccc1O [FERULATE] .
Not Active

Specify measured IC50 for CCN1CCCC1CNC(=O)c1cc(S(N)(=O)=O)ccc1OC (stereo not drawn) [SULPIRIDE] .
Not Active

Specify measured IC50 for C=CCO .
Not Active

Specify measured IC50 for O=C(Nc1ccc(Cl)c(Cl)c1)c1cc(Cl)cc(Cl)c1O [3,3',4',5-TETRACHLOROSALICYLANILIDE] .
Not Active
